- MEASURED_TARGET: p38 MAP kinase (Homo sapiens)
- Construct: made in house; host or cells: E. coli
- Sequence (Q16539 whole entry): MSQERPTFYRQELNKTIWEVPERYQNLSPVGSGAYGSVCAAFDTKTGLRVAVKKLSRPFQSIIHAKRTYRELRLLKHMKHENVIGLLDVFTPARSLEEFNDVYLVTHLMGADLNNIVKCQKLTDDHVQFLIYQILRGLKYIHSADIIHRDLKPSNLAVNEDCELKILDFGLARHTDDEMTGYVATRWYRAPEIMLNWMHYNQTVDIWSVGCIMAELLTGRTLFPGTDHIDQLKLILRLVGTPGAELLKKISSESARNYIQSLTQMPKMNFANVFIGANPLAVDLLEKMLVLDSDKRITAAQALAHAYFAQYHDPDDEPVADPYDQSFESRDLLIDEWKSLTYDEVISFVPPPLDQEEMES
- ASSAY_COMMENT: P38 MAP kinase binding assay (competition with fluorescent probe SKF 86002)
- ASSAY_CONTEXT: inhibition assigned as time-dependent if the IC50 values decrease with the reaction time (more than two-fold in four hours)
ASSAY_READOUT: Time-dependent

# Time-dependent of `CC(C)(C)c1cc(NC(=O)Nc2cccc3ccccc23)n(-c2ccc(CN)cc2)n1` = No

# Time-dependent of CC1(C(=O)O)CC2(C)CC(C)(C1)C(=O)N(Cc1cccc(-n3nc(C(C)(C)C)cc3NC(=O)Nc3cccc4ccccc34)c1)C2=O (stereo not shown) = No

# Time-dependent of CC1(C(=O)O)CC2(C)CC(C)(C1)C(=O)N(Cc1cccc(-n3nc(C(C)(C)C)cc3NC(=O)Nc3ccc(Cl)cc3)c1)C2=O (stereo not shown) = No

# Time-dependent of `CC(C)(C)c1cc(NC(=O)Nc2cccc3ccccc23)n(-c2cccc(CC(=O)N3CCOCC3)c2)n1` = Yes
